assayed_target: gp41 of HIV-1 strain HXB2D with mutation V38A (HIV-1 strain HXB2D, UniProt P04578)
method_notes: cell-based or functional assay
Starred links: 1 amine or outer side, 2 acyl side, 3 side chain; linkers in the order of their positions; H or OH if unused. Positions of bridges follow the written chain, without caps; N, C: chain ends. Non-standard residues stand in square brackets, D forms with d. *: point of attachment. tBuAla = CC(C)(C)C[C@H](N)C(=O)O; Suc = O=C(CCC(=O)[*:2])[*:1]; Nva = CCC[C@H](N)C(=O)O; Abu = CC[C@H](N)C(=O)O; Hexanoyl = CCCCCC(=O)*; B1 = not defined here
property_label: fold change in EC50, HIV-HXB2D V38A mutant (fold)
One number for each entry, in fold.

[[record]]
binder = "Suc-ACY[Abu]ACIEALIRAAQEQQEKNEAALR-NH2 (linker 2-6 via B1; reading uncertain) [peptide 49]"
result_value = 33

[[record]]
binder = "Ac-CYAACIEALIRAAQEQQEKNEAALR-NH2 (linker 1-5 via B1; reading uncertain) [peptide 21]"
result_value = 75

[[record]]
binder = "Suc-ACYLACIDELIAKAQEQQEKNEAALR-NH2 (linker 2-6 via B1; reading uncertain) [peptide 36]"
result_value = 23

[[record]]
binder = "Suc-ECYLACIEALIRAAQEQQEKNEAALR-NH2 (linker 2-6 via B1; reading uncertain) [peptide 33]"
result_value = 11

[[record]]
binder = "Suc-ACY[Nva]ACIEALIRAAQEQQEKNEAALR-NH2 (linker 2-6 via B1; reading uncertain) [peptide 44]"
result_value = 15

[[record]]
binder = "Suc-ACYLACIDELIKKAQEQQEKNEAALR-NH2 (linker 2-6 via B1; reading uncertain) [peptide 30]"
result_value = 8


Hello, I would appreciate it if you could give fold change in EC50, HIV-HXB2D V38A mutant for each entry below.
1. Ac-[dA]CYAACIEALIRAAQEQQEKNEAAL[dR]-NH2 (linker 2-6 via 2,7‑dimethylnaphthyl) [peptide 76]
2. Suc-CYLACIEELIRKAQEQQEKNEAAL[tBuAla]-NH2 (linker 1-5 via B1; reading uncertain) [peptide 24]
3. Suc-ACYLACIEELIRKAQEQQEKNEAALR-NH2 (linker 2-6 via B1; not fully specified; reading uncertain) [peptide 31]
4. Hexanoyl-ECYLACIEELIRKAQEQQEKNEAALR-NH2 (linker 2-6 via B1; reading uncertain) [peptide 42]

1. 48
2. 26
3. 14
4. 2
